# ASSAY_SUMMARY: Crystal form stability study (influencing factor experiments)
# Type: physicochemical
# CONDITION_CONTEXT: light exposure (4500 Lux), 30 days, open container
// reported Purity % per item
MEASURE: Purity % (%)

- COMPOUND: "CCc1c(F)ccc2cc(O)cc(-c3nc4c5c(nc(OC[C@@]67CCCN6C[C@H](F)C7)nc5c3F)N3C[C@H]5CC[C@H](N5)[C@H]3CO4)c12 [Crystal form J]"
  UNIT_INFO: "%"
  MEASURED_NUMBER: 93.0
- COMPOUND: "CCc1c(F)ccc2cc(O)cc(-c3nc4c5c(nc(OC[C@@]67CCCN6C[C@H](F)C7)nc5c3F)N3C[C@H]5CC[C@H](N5)[C@H]3CO4)c12 [Crystal form B]"
  UNIT_INFO: "%"
  MEASURED_NUMBER: 97.6
- COMPOUND: "CCc1c(F)ccc2cc(O)cc(-c3nc4c5c(nc(OC[C@@]67CCCN6C[C@H](F)C7)nc5c3F)N3C[C@H]5CC[C@H](N5)[C@H]3CO4)c12 [Crystal form C]"
  UNIT_INFO: "%"
  MEASURED_NUMBER: 97.9
- COMPOUND: "CCc1c(F)ccc2cc(O)cc(-c3nc4c5c(nc(OC[C@@]67CCCN6C[C@H](F)C7)nc5c3F)N3C[C@H]5CC[C@H](N5)[C@H]3CO4)c12 [Crystal form I]"
  UNIT_INFO: "%"
  MEASURED_NUMBER: 99.2
- COMPOUND: "CCc1c(F)ccc2cc(O)cc(-c3nc4c5c(nc(OC[C@@]67CCCN6C[C@H](F)C7)nc5c3F)N3C[C@H]5CC[C@H](N5)[C@H]3CO4)c12 [Crystal form K]"
  UNIT_INFO: "%"
  MEASURED_NUMBER: 97.9
- COMPOUND: "CCc1c(F)ccc2cc(O)cc(-c3nc4c5c(nc(OC[C@@]67CCCN6C[C@H](F)C7)nc5c3F)N3C[C@H]5CC[C@H](N5)[C@H]3CO4)c12 [Crystal form A]"
  UNIT_INFO: "%"
  MEASURED_NUMBER: 95.8

====

# ASSAY_SUMMARY: Crystal form stability study (influencing factor experiments)
# Assay type: physicochemical
# CONDITION_CONTEXT: 92.5% RH, 10 days, open container
MEASURE: Purity % (%)

- MOLECULE: "CCc1c(F)ccc2cc(O)cc(-c3nc4c5c(nc(OC[C@@]67CCCN6C[C@H](F)C7)nc5c3F)N3C[C@H]5CC[C@H](N5)[C@H]3CO4)c12 [Crystal form B]"
  MEASURE: "Purity %"
  UNIT_INFO: "%"
  MEASURED_NUMBER: 99.4
- MOLECULE: "CCc1c(F)ccc2cc(O)cc(-c3nc4c5c(nc(OC[C@@]67CCCN6C[C@H](F)C7)nc5c3F)N3C[C@H]5CC[C@H](N5)[C@H]3CO4)c12 [Crystal form I]"
  MEASURE: "Purity %"
  UNIT_INFO: "%"
  MEASURED_NUMBER: 99.5
- MOLECULE: "CCc1c(F)ccc2cc(O)cc(-c3nc4c5c(nc(OC[C@@]67CCCN6C[C@H](F)C7)nc5c3F)N3C[C@H]5CC[C@H](N5)[C@H]3CO4)c12 [Crystal form J]"
  MEASURE: "Purity %"
  UNIT_INFO: "%"
  MEASURED_NUMBER: 99.5
- MOLECULE: "CCc1c(F)ccc2cc(O)cc(-c3nc4c5c(nc(OC[C@@]67CCCN6C[C@H](F)C7)nc5c3F)N3C[C@H]5CC[C@H](N5)[C@H]3CO4)c12 [Crystal form K]"
  MEASURE: "Purity %"
  UNIT_INFO: "%"
  MEASURED_NUMBER: 99.7
- MOLECULE: "CCc1c(F)ccc2cc(O)cc(-c3nc4c5c(nc(OC[C@@]67CCCN6C[C@H](F)C7)nc5c3F)N3C[C@H]5CC[C@H](N5)[C@H]3CO4)c12 [Crystal form A]"
  MEASURE: "Purity %"
  UNIT_INFO: "%"
  MEASURED_NUMBER: 99.4
- MOLECULE: "CCc1c(F)ccc2cc(O)cc(-c3nc4c5c(nc(OC[C@@]67CCCN6C[C@H](F)C7)nc5c3F)N3C[C@H]5CC[C@H](N5)[C@H]3CO4)c12 [Crystal form C]"
  MEASURE: "Purity %"
  UNIT_INFO: "%"
  MEASURED_NUMBER: 99.6

====

# ASSAY_SUMMARY: Crystal form stability study (influencing factor experiments)
# Type: physicochemical
# CONDITION_CONTEXT: 60° C., 10 days, open container

- COMPOUND: "CCc1c(F)ccc2cc(O)cc(-c3nc4c5c(nc(OC[C@@]67CCCN6C[C@H](F)C7)nc5c3F)N3C[C@H]5CC[C@H](N5)[C@H]3CO4)c12 [Crystal form A]"
  Color and state: "Off-white solid"
- COMPOUND: "CCc1c(F)ccc2cc(O)cc(-c3nc4c5c(nc(OC[C@@]67CCCN6C[C@H](F)C7)nc5c3F)N3C[C@H]5CC[C@H](N5)[C@H]3CO4)c12 [Crystal form I]"
  Color and state: "Off-white solid"
- COMPOUND: "CCc1c(F)ccc2cc(O)cc(-c3nc4c5c(nc(OC[C@@]67CCCN6C[C@H](F)C7)nc5c3F)N3C[C@H]5CC[C@H](N5)[C@H]3CO4)c12 [Crystal form C]"
  Color and state: "Off-white solid"

====

The reader will find reported Purity % 2 months values listed item by item below.
# ASSAY_SUMMARY: Long-term/accelerated stability
# Format: physicochemical
# CONDITION_CONTEXT: 40° C./75% RH, 2 months

- COMPOUND: "CCc1c(F)ccc2cc(O)cc(-c3nc4c5c(nc(OC[C@@]67CCCN6C[C@H](F)C7)nc5c3F)N3C[C@H]5CC[C@H](N5)[C@H]3CO4)c12 [Crystal form J]"
  Purity % 2 months (%): 99.3
- COMPOUND: "CCc1c(F)ccc2cc(O)cc(-c3nc4c5c(nc(OC[C@@]67CCCN6C[C@H](F)C7)nc5c3F)N3C[C@H]5CC[C@H](N5)[C@H]3CO4)c12 [Crystal form I]"
  Purity % 2 months (%): 99.4
- COMPOUND: "CCc1c(F)ccc2cc(O)cc(-c3nc4c5c(nc(OC[C@@]67CCCN6C[C@H](F)C7)nc5c3F)N3C[C@H]5CC[C@H](N5)[C@H]3CO4)c12 [Crystal form K]"
  Purity % 2 months (%): 99.7
- COMPOUND: "CCc1c(F)ccc2cc(O)cc(-c3nc4c5c(nc(OC[C@@]67CCCN6C[C@H](F)C7)nc5c3F)N3C[C@H]5CC[C@H](N5)[C@H]3CO4)c12 [Crystal form C]"
  Purity % 2 months (%): 99.4

====

# ASSAY_SUMMARY: Crystal form stability study (influencing factor experiments)
# Type: physicochemical
# CONDITION_CONTEXT: 60° C., 5 days, open container
MEASURE: Color and state

- MOLECULE: "CCc1c(F)ccc2cc(O)cc(-c3nc4c5c(nc(OC[C@@]67CCCN6C[C@H](F)C7)nc5c3F)N3C[C@H]5CC[C@H](N5)[C@H]3CO4)c12 [Crystal form C]"
  RESULT: "Off-white solid"
- MOLECULE: "CCc1c(F)ccc2cc(O)cc(-c3nc4c5c(nc(OC[C@@]67CCCN6C[C@H](F)C7)nc5c3F)N3C[C@H]5CC[C@H](N5)[C@H]3CO4)c12 [Crystal form K]"
  RESULT: "Off-white solid"
- MOLECULE: "CCc1c(F)ccc2cc(O)cc(-c3nc4c5c(nc(OC[C@@]67CCCN6C[C@H](F)C7)nc5c3F)N3C[C@H]5CC[C@H](N5)[C@H]3CO4)c12 [Crystal form A]"
  RESULT: "Off-white solid"
- MOLECULE: "CCc1c(F)ccc2cc(O)cc(-c3nc4c5c(nc(OC[C@@]67CCCN6C[C@H](F)C7)nc5c3F)N3C[C@H]5CC[C@H](N5)[C@H]3CO4)c12 [Crystal form I]"
  RESULT: "Off-white solid"
- MOLECULE: "CCc1c(F)ccc2cc(O)cc(-c3nc4c5c(nc(OC[C@@]67CCCN6C[C@H](F)C7)nc5c3F)N3C[C@H]5CC[C@H](N5)[C@H]3CO4)c12 [Crystal form J]"
  RESULT: "Off-white solid"
- MOLECULE: "CCc1c(F)ccc2cc(O)cc(-c3nc4c5c(nc(OC[C@@]67CCCN6C[C@H](F)C7)nc5c3F)N3C[C@H]5CC[C@H](N5)[C@H]3CO4)c12 [Crystal form B]"
  RESULT: "Off-white solid"
